pIC50: −log10 of the molar value.
Below: compounds with pIC50 recorded for Somatostatin receptor type 5 (Homo sapiens) in separate published works.

Take a look at these entries with their results.
| compound | pIC50 |
| --- | --- |
| C[C@@H](O)[C@@H]1NC(=O)[C@H](CCCCN)NC(=O)[C@@H](Cc2c[nH]c3ccccc23)NC(=O)[C@H](Cc2ccccc2)NC(=O)[C@H](Cc2ccccc2)NC(=O)[C@@H](N)CSSC[C@@H](C(=O)O)NC(=O)[C@H](N(C)C(=O)c2ccccc2)NC1=O | 6.66 |
| CC(C)NCc1ccc(C[C@@H]2NC(=O)[C@@H](Cc3ccc4ccccc4c3)NC(=O)[C@H](Cc3ccccc3)NC(=O)[C@H](Cc3ccccc3)NC(=O)[C@H](CCCCN)N(C)C(=O)[C@@H](N)CSSC[C@@H](C(=O)O)NC(=O)[C@H](CO)NC(=O)[C@H]([C@@H](C)O)NC(=O)[C@H](Cc3ccccc3)NC(=O)[C@H]([C@@H](C)O)NC2=O)cc1 | < 6.00 |
| C[C@@H](O)[C@H](NC(=O)[C@@H]1CSSC[C@H](NC(=O)[C@@H](Cc2ccccc2)NC(N)=O)C(=O)N[C@@H](Cc2ccc(NC(N)=O)cc2)C(=O)N[C@H](Cc2c[nH]c3ccccc23)C(=O)N[C@@H](CCCCN)C(=O)N[C@@H]([C@@H](C)O)C(=O)N1)C(N)=O | 7.11 |
| CC(C)NCc1ccc(C[C@@H]2NC(=O)[C@@H](Cc3c[nH]c4ccccc34)NC(=O)[C@@H]3CCC(=O)NCCCCCC[C@H](NC(=O)[C@H](Cc4ccccc4)NC(=O)[C@H]([C@@H](C)O)NC2=O)C(=O)N[C@@H](CO)C(=O)N[C@H](C(=O)O)CSSC[C@H](NC(=O)[C@@H](N)Cc2ccc(O)cc2)C(=O)N[C@@H](CCCCN)C(=O)N[C@@H](Cc2ccccc2)C(=O)N3)cc1 | < 6.00 |
| CC(C)NCc1ccc(C[C@@H]2NC(=O)[C@@H](Cc3ccc4ccccc4c3)NC(=O)[C@H](Cc3ccccc3)NC(=O)[C@H](Cc3ccccc3)NC(=O)[C@H](CCCCN)NC(=O)[C@@H](N)CSSC[C@@H](C(=O)O)NC(=O)[C@H](CO)NC(=O)[C@H]([C@@H](C)O)NC(=O)[C@H](Cc3ccccc3)N(C)C(=O)[C@H]([C@@H](C)O)NC2=O)cc1 | < 6.00 |

Kindly consider the entry below.
Ask: Given the compound "CC(C)NCc1ccc(C[C@@H]2NC(=O)[C@@H](Cc3c[nH]c4ccccc34)NC(=O)[C@@H]3CCC(=O)NCCCC[C@H](NC(=O)[C@H](Cc4ccccc4)NC(=O)[C@H]([C@@H](C)O)NC2=O)C(=O)N[C@@H](CO)C(=O)N[C@H](C(N)=O)CSSC[C@H](NC(=O)[C@@H](N)Cc2ccc(O)cc2)C(=O)N[C@@H](CCCCN)C(=O)N[C@@H](Cc2ccccc2)C(=O)N3)cc1" , what is its reported pIC50?
Result: < 6.00

###

# literature pull: Somatostatin receptor type 5 (Homo sapiens, UniProt P35346) pIC50
# Sequence (P35346 whole entry): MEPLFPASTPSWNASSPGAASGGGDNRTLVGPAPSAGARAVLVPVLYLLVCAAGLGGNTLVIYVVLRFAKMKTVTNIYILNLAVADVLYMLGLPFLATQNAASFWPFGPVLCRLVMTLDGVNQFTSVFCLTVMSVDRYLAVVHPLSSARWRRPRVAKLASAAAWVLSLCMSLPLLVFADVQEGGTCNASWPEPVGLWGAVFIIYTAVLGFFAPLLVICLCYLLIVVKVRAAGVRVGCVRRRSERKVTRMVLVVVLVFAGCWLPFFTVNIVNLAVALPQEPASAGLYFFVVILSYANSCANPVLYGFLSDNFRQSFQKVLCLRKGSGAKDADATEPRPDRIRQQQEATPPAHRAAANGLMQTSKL
To interpret pIC50, take it as minus log10 of a concentration measured in moles per litre.

A selection of reference data follows.
| molecule | meas-value |
| --- | --- |
| C[C@@H](O)[C@H](NC(=O)[C@@H]1CSSC[C@H](NC(=O)[C@H](Cc2ccccc2)NC(N)=O)C(=O)N[C@@H](Cc2ccc(NC(N)=O)cc2)C(=O)N[C@H](Cc2c[nH]c3ccccc23)C(=O)N[C@@H](CCCCN)C(=O)N[C@@H]([C@@H](C)O)C(=O)N1)C(N)=O | 6.96 |
| C[C@@H](O)[C@@H]1NC(=O)[C@H](CCCCN)NC(=O)[C@H](Cc2c[nH]c3ccccc23)NC(=O)[C@H](Cc2ccccc2)NC(=O)[C@H](Cc2ccccc2)NC(=O)[C@@H](N)CSSC[C@@H](C(=O)O)NC(=O)[C@H](Cc2ccc(O)cc2)NC1=O (stereo in doubt) | 7.62 |

Field: next molecule
Ask: pIC50 of "CC(C)NCc1ccc(C[C@@H]2NC(=O)[C@@H](Cc3c[nH]c4ccccc34)NC(=O)[C@H](Cc3ccccc3)NC(=O)[C@H](Cc3ccccc3)NC(=O)[C@H](CCCCN)NC(=O)[C@@H](N)CSSC[C@@H](C(=O)N[C@@H](CCCCN)C(=O)N[C@@H](CCCCN)C(=O)O)NC(=O)[C@H](CO)N(C)C(=O)[C@H]([C@@H](C)O)NC(=O)[C@H](Cc3ccccc3)NC(=O)[C@H]([C@@H](C)O)NC2=O)cc1" on Somatostatin receptor type 5 (Homo sapiens, UniProt P35346)?
Result: 6.17

###

# merged literature set: pIC50 with Somatostatin receptor type 5 (Homo sapiens)
pIC50: −log10 of the molar value.

Sample records with pIC50:
| compound | tested-system | pIC50 |
| --- | --- | --- |
| C[C@@H](O)[C@@H]1NC(=O)[C@H](N(C)C(=O)CCN)NC(=O)[C@@H](Cc2c[nH]c3ccccc23)NC(=O)[C@H](Cc2ccccc2)NC(=O)[C@H](Cc2ccccc2)NC(=O)[C@@H](N)CSSC[C@@H](C(=O)O)NC(=O)[C@H](Cc2ccccc2)NC1=O | Somatostatin receptor type 5 (Homo sapiens) | < 6.00 |
| CC(C)NCc1ccc(C[C@@H]2NC(=O)[C@@H](Cc3c[nH]c4ccccc34)NC(=O)[C@@H]3CCC(=O)NCCCC(=O)NCC[C@H](NC(=O)[C@H](Cc4ccccc4)NC(=O)[C@H]([C@@H](C)O)NC2=O)C(=O)N[C@@H](CO)C(=O)N[C@H](C(=O)O)CSSC[C@H](NC(=O)[C@@H](N)Cc2ccc(O)cc2)C(=O)N[C@@H](CCCCN)C(=O)N[C@@H](Cc2ccccc2)C(=O)N3)cc1 | Somatostatin receptor type 5 (Homo sapiens) | < 6.00 |
| C[C@@H](O)[C@H](NC(=O)[C@@H]1CSC[C@H](NC(=O)[C@H](N)Cc2ccccc2)C(=O)N[C@@H](Cc2ccccc2)C(=O)N[C@H](Cc2c[nH]c3ccccc23)C(=O)N[C@@H](CCCCN)C(=O)N[C@@H]([C@@H](C)O)C(=O)N1)C(N)=O | Somatostatin receptor type 5 (Homo sapiens) | 8.31 |
| C[C@@H](O)[C@@H]1NC(=O)[C@H](CCCCN)NC(=O)[C@@H](Cc2c[nH]c3ccccc23)NC(=O)[C@H](Cc2ccccc2)NC(=O)[C@H](N(C)C(=O)c2ccccc2)NC(=O)[C@@H](N)CSSC[C@@H](C(=O)O)NC(=O)[C@H](Cc2ccccc2)NC1=O (stereo in doubt; 4) | Somatostatin receptor type 5 (Homo sapiens) | < 6.00 |
| CC(C)CN(Cc1ccc(C[C@@H]2NC(=O)[C@@H](Cc3c[nH]c4ccccc34)NC(=O)[C@H](Cc3ccccc3)NC(=O)[C@H](Cc3ccccc3)NC(=O)[C@H](CCCCN)NC(=O)[C@@H](N)CSSC[C@@H](C(=O)O)NC(=O)[C@H](CO)NC(=O)[C@H]([C@@H](C)O)NC(=O)[C@H](Cc3ccccc3)NC(=O)[C@H]([C@@H](C)O)NC2=O)cc1)CC(C)C | Somatostatin receptor type 5 (Homo sapiens) | < 5.00 |

Ask: Can you look up the measured pIC50 of "C[C@@H](O)[C@@H]1NC(=O)[C@H](CCCCN)NC(=O)[C@H](Cc2c[nH]c3ccccc23)NC(=O)[C@H](N(C)C(=O)c2ccccc2)NC(=O)[C@H](Cc2ccccc2)NC(=O)[C@@H](N)CSSC[C@@H](C(=O)O)NC(=O)[C@H](Cc2ccccc2)NC1=O" for me?
Result: < 6.00

Ask: // query: "CC(C)NCc1ccc(C[C@@H]2NC(=O)[C@@H](Cc3c[nH]c4ccccc34)NC(=O)[C@@H]3CCC(=O)NCCCC[C@H](NC(=O)[C@H](Cc4ccccc4)NC(=O)[C@H]([C@@H](C)O)NC2=O)C(=O)N[C@@H](CO)C(=O)N[C@H](C(=O)O)CSSC[C@H](NC(=O)[C@@H](N)Cc2ccc(O)cc2)C(=O)N[C@@H](CCCCN)C(=O)N[C@@H](Cc2ccccc2)C(=O)N3)cc1"
Result: < 6.00

###

Here we gather IC50 data for Somatostatin receptor type 5 (Homo sapiens, UniProt P35346) reported by several publications.

| substance-smiles | IC50 |
| --- | --- |
| CC(C)NCc1ccc(C[C@@H]2NC(=O)[C@@H](Cc3ccc4ccccc4c3)NC(=O)[C@H](Cc3ccccc3)NC(=O)[C@H](Cc3ccccc3)NC(=O)[C@H](CCCCN)NC(=O)[C@@H](N)CSSC[C@@H](C(=O)N[C@@H](CCCCN)C(=O)N[C@@H](CCCCN)C(=O)N[C@@H](CCCCN)C(=O)O)N(C)C(=O)[C@H](CO)NC(=O)[C@H]([C@@H](C)O)NC(=O)[C@H](Cc3ccccc3)NC(=O)[C@H]([C@@H](C)O)NC2=O)cc1 | > 1000 nM |
| CC(C)NCc1ccc(C[C@@H]2NC(=O)[C@@H](Cc3c[nH]c4ccccc34)NC(=O)[C@@H]3CCC(=O)NCCC(=O)NCC[C@H](NC(=O)[C@H](Cc4ccccc4)NC(=O)[C@H]([C@@H](C)O)NC2=O)C(=O)N[C@@H](CO)C(=O)N[C@H](C(=O)O)CSSC[C@H](NC(=O)[C@@H](N)Cc2ccc(O)cc2)C(=O)N[C@@H](CCCCN)C(=O)N[C@@H](Cc2ccccc2)C(=O)N3)cc1 | > 1000 nM |

--- query ---
Ask: Notebook entry, Somatostatin receptor type 5 (Homo sapiens, UniProt P35346) assay: IC50 of "CC(C)NCc1ccc(C[C@@H]2NC(=O)[C@@H](Cc3ccc4ccccc4c3)NC(=O)[C@H](Cc3ccccc3)NC(=O)[C@H](Cc3ccccc3)NC(=O)[C@H](CCCCN)NC(=O)[C@@H](NC(=O)[C@@H](N)Cc3ccc(O)cc3)CSSC[C@@H](C(=O)O)NC(=O)[C@H](CO)NC(=O)[C@H]([C@@H](C)O)NC(=O)[C@H](Cc3ccccc3)NC(=O)[C@H]([C@@H](C)O)NC2=O)cc1" = ?
Result: > 1000 nM
